The values you see were collected from patent US20260115187A1.

System: PLC/PRF/5 KSR2 OE (PLC cells overexpressing KSR2)
experiment: Cell IC50 assay (CCK8 cell viability), PLC/PRF/5 KSR2 OE
Format: cell-based
recorded conditions: Homo sapiens, PLC-PRF-5; hepatoma cells, 72 h incubation, CCK8; read-out: IC50 value of cell viability, PLC/PRF/5 KSR2 OE (PLC cells overexpressing KSR2)
Measured IC50 by item

>  <compound>
Cn1nc(C(=O)NCCCN2CCC(N3CCCCC3)CC2)c2c1-c1ccccc1SC2 [Compound 13]

>  <IC50 / µM>
2

$$$$
>  <compound>
Cc1ccc2c(c1)OCc1c-2nn(C)c1C(=O)NCCCN1CC(N2CCN(C)CC2)C1 [Compound 115]

>  <IC50 / µM>
43

$$$$
>  <compound>
CCN1CCN(C2CN(CCCNC(=O)c3nn(C)c4c3CSc3ccccc3-4)C2)CC1 [Compound 81]

>  <IC50 / µM>
26

$$$$
>  <compound>
CCn1nc(C(=O)NCCCN2CCN(C3CCCCC3)CC2)c2c1-c1ccccc1SC2 [Compound 14]

>  <IC50 / µM>
39

$$$$
>  <compound>
CN1CCN(C2CCN(C3CC(CNC(=O)c4nn(C)c5c4CSc4ccccc4-5)C3)CC2)CC1 (centres unmarked) [Compound 78]

>  <IC50 / µM>
12

$$$$
>  <compound>
CN1CCN(C2CCN(CCCNC(=O)c3nn(C)c4c3COc3ccc(Cl)cc3-4)CC2)CC1 [Compound 69]

>  <IC50 / µM>
0.6

$$$$
>  <compound>
CN1CCN(C2CCN(CCCNC(=O)c3nn(C)c4c3CS(=O)(=O)c3ccccc3-4)CC2)CC1 [Compound 75]

>  <IC50 / µM>
18

$$$$
>  <compound>
CC(C)N1CCN(C2CN(CCCNC(=O)c3nn(C)c4c3COc3cc(Cl)ccc3-4)C2)CC1 [Compound 103]

>  <IC50 / µM>
5

$$$$
